read-out: Interleukin-1 alpha (IL1a), IL1A (gene 3552); assay: BSK_LPS_IL1a: BioMAP Diversity Plus: LPS Assay for Interleukin-1 alpha (IL1a) Biomarker Activity (AID 2283080); conditions: primary human HUVEC with PBMC; actives raise or lower the signal
Active and inactive are the calls of the source. Rule for the calls: active = hit-call score of the fitted dose curve at least 0.9, where 1 is the maximum; inactive = score below 0.9.
Give your call using only these classes: 1 (yes) for active, 0 (no) for inactive

Some solved entries appear below for comparison.
- CCC(=C(c1ccc(O)cc1)c1ccc(OCCN(C)C)cc1)c1ccccc1: 1 (yes)
- CCCOC(=O)c1ccc(O)cc1: 0 (no)
- CN1CCC[C@H]1c1cccnc1: 0 (no)
- Cc1oc(-c2ccccc2)nc1CCOc1ccc(C[C@H](Nc2ccccc2C(=O)c2ccccc2)C(=O)O)cc1: 1 (yes)
- CC(=O)NC1(c2cccc(F)c2)CCN(CC[C@@]2(c3ccc(Cl)c(Cl)c3)CN(c3ccccc3)C(=O)CO2)CC1: 1 (yes)

INPUT: Would you mind telling me which call this test gave CCCCCCCCCCCCN1CCCC1=O ?
OUTPUT: 1 (yes)

INPUT: Call for entry c1ccc2c(c1)ccc1ccccc12 :
OUTPUT: 0 (no)

INPUT: Could you kindly confirm the outcome this assay logged for OCCC(F)(F)C(F)(F)C(F)(F)C(F)(F)C(F)(F)C(F)(F)F ?
OUTPUT: 0 (no)

INPUT: Give the logged outcome of this assay for the following compound: C[C@@H]1C[C@H]2[C@@H]3CCC4=CC(=O)C=C[C@]4(C)[C@@]3(F)[C@@H](O)C[C@]2(C)[C@@]1(O)C(=O)COP(=O)(O)O
OUTPUT: 0 (no)

INPUT: Dear all, I need the recorded test outcome for CC(C)(C)c1cccc(C(C)(C)C)c1O , thank you.
OUTPUT: 0 (no)

----------
read-out: JUN Transcription Factor, JUN (gene 3725); assay: LTEA_HepaRG_JUN: Life Technologies and Expression Analysis (LTEA) Assay for JUN Transcription Factor using HepaRG (AID 2283513); conditions: mRNA level, 48 h; actives raise or lower the signal
The source made the active and inactive calls. How the source made its calls: active means hit-call score of the fitted dose curve at least 0.9, where 1 is the maximum; inactive means score below 0.9.
Please state which outcome applies, choosing from 1 (yes) = active, 0 (no) = inactive

• CCCCCCCCCCCCN1CCCC1=O = 0 (no)
• Cc1cc(CCN2CCN(c3nsc4ccccc34)CC2)cc2c1NC(=O)CC2(C)C = 0 (no)
• Nc1cccc2c(N)cccc12 = 0 (no)

INPUT: Recorded test call requested for CCN(CC)CCNc1ccc(CNC=O)c2sc3ccc(OC)cc3c(=O)c12
OUTPUT: 1 (yes)

INPUT: In this assay, the call recorded for CN1CCC[C@H]1c1cccnc1 was what?
OUTPUT: 0 (no)

INPUT: Tell me the assay call for NC(=O)N1C(=O)C(C(=O)c2cc(Cl)cs2)c2cc(F)c(Cl)cc21 (stereo not given) please.
OUTPUT: 1 (yes)

INPUT: For OCCC(F)(F)C(F)(F)C(F)(F)C(F)(F)C(F)(F)C(F)(F)F , what call appears in the results of this test?
OUTPUT: 0 (no)

INPUT: Identify the outcome logged in this assay for the molecule shown: CC1=C(/C=C/C(C)=C/C=C/C(C)=C/C(=O)O)C(C)(C)CCC1
OUTPUT: 0 (no)

INPUT: For O=C(O)c1ccccc1C(c1ccc(O)cc1)c1ccc(O)cc1 , which call appears in the assay record?
OUTPUT: 0 (no)

INPUT: Lab log entry: COCC(C)OCC(C)O (stereo not given) — outcome as called in the assay?
OUTPUT: 0 (no)

INPUT: Given CC(=O)CC(C)(C)O , state the outcome it received in this test.
OUTPUT: 0 (no)

INPUT: // outcome(item) with item = CCCOc1sc(C(=O)N2CCC(c3cc(CN)ccc3F)CC2)c(C)c1Br
OUTPUT: 0 (no)

INPUT: Each molecule tested received a call. Report the one for O=C(O)Cc1cc(I)c(Oc2cc(I)c(O)c(I)c2)c(I)c1 .
OUTPUT: 1 (yes)

----------
read-out: Intercellular Adhesion Molecule 1 (ICAM1), ICAM1 (gene 3383); assay: BSK_3C_ICAM1: BioMAP Diversity Plus: 3C Assay for Intercellular Adhesion Molecule 1 (ICAM1) Biomarker Activity (AID 2283003); details: primary human endothelial cells (HUVEC); actives raise or lower the signal
Activity calls are given as the source filed them. The calls were made as follows: active = hit-call score of the fitted dose curve at least 0.9, where 1 is the maximum; inactive = score below 0.9.
Just give me one of these, please: yes for active, no for inactive

These recorded examples may help you get a feel for the data.
* CCCCOCCO | no
* CC(C)(C)c1cc(C(C)(C)C)c(O)c(C(C)(C)C)c1 | no

INPUT: Please state the recorded outcome for this compound: CC(=O)CC(C)(C)O
OUTPUT: no

INPUT: Hi team, can someone confirm the assay call for CC(C)CCCCCCOC(=O)CCCCC(=O)OCCCCCCC(C)C ?
OUTPUT: no

INPUT: Write down the call the test reported for this compound. Item: O=C(O)c1ccccc1C(c1ccc(O)cc1)c1ccc(O)cc1
OUTPUT: no

INPUT: Assay result, entry CCC(=C(c1ccc(O)cc1)c1ccc(OCCN(C)C)cc1)c1ccccc1 — outcome?
OUTPUT: yes

INPUT: Outcome logged for c1ccc2c(c1)Cc1ccccc1-2 in this assay:
OUTPUT: no

----------
read-out: CFLAR gene, CFLAR (gene 8837); assay: LTEA_HepaRG_CFLAR: Life Technologies and Expression Analysis (LTEA) Assay for CFLAR gene using HepaRG (AID 2283455); conditions: mRNA level, 48 h; actives raise or lower the signal
Active and inactive are the calls of the source. Rule for the calls: active = hit-call score of the fitted dose curve at least 0.9, where 1 is the maximum; inactive = score below 0.9.
Would you mind answering with one of these outcomes? true = active, false = inactive

Observe how each entry below is paired with its result.
* OC1CCCCC1 | false
* CCC(=C(c1ccc(O)cc1)c1ccc(OCCN(C)C)cc1)c1ccccc1 | true
* CCCCC(CC)COC(=O)CCCCC(=O)OCc1ccccc1 (stereo unspecified) | false
* CCCOc1sc(C(=O)N2CCC(c3cc(CN)ccc3F)CC2)c(C)c1Br | false
* CC[C@H](C)[C@@H](C(=O)O)n1sc2ccccc2c1=O | false

Okay, next one:
INPUT: I'd appreciate the recorded outcome for CN1CCC[C@H]1c1cccnc1 from this test.
OUTPUT: false

----------
Read-out: Decorin, DCN (gene 1634)
Test: BSK_MyoF_Decorin: BioMAP Diversity Plus: MyoF Assay for Decorin Biomarker Activity (AID 2284265)
Conditions: primary human lung fibroblasts
Method: BSK_MyoF is a cell-based, multiplexed-readout assay that uses lung fibroblasts, […], with measurements taken at 24 hours after chemical dosing in a microplate: 96-well plate.BSK_MyoF_Decorin is an assay component measured in the BSK_MyoF assay. […] The levels of cell surface (or secreted, indicated by the prefix "s") biomarker endpoints were measured by ELISA. […] Plates were read after 6 h.
Active and inactive are the calls of the source. Rule for the calls: active = hit-call score of the fitted dose curve at least 0.9, where 1 is the maximum; inactive = score below 0.9.
// classify into active, inactive

Below, 3 compounds whose answers are already recorded.
* C=C(C)C(=O)OCCC(F)(F)C(F)(F)C(F)(F)C(F)(F)C(F)(F)C(F)(F)F | inactive
* C[C@@H]1C[C@H]2[C@@H]3CCC4=CC(=O)C=C[C@]4(C)[C@@]3(F)[C@@H](O)C[C@]2(C)[C@@]1(O)C(=O)COP(=O)(O)O | inactive
* CCCCCCCCCCCCCC[N+](C)(C)C | active

INPUT: Give the logged outcome of this assay for the following compound: OCCC(F)(F)C(F)(F)C(F)(F)C(F)(F)C(F)(F)C(F)(F)F
OUTPUT: inactive

INPUT: # fetch the recorded call for FC(F)(I)C(F)(F)C(F)(F)C(F)(F)C(F)(F)C(F)(F)I here
OUTPUT: active

----------
experiment: ATG_Ets_CIS: Attagene CIS-FACTORIAL HepG2 Assay for human Erythroblast Transformation Specific (ETS) (AID 2282941); conditions: HepG2 ETS cis-reporter transcription, actives raise or lower the signal
Activity calls are given as the source filed them. The calls were made as follows: active = hit-call score of the fitted dose curve at least 0.9, where 1 is the maximum; inactive = score below 0.9.
Allowed answers: t for active, f for inactive

// below: answered compounds
- CCCCCCCCC(=O)O: f
- CCCCC(CC)COC(=O)CCCCC(=O)OCc1ccccc1 (stereo not drawn): f
- CC(C)(C)c1ccc(O)c(C(C)(C)C)c1: f
- c1ccc2c(c1)ccc1ccccc12: f
- C[C@@H]1C[C@H]2[C@@H]3CCC4=CC(=O)C=C[C@]4(C)[C@@]3(F)[C@@H](O)C[C@]2(C)[C@@]1(O)C(=O)COP(=O)(O)O: f

INPUT: Dear all, I need the recorded test outcome for CC(O)CO (stereo not drawn) , thank you.
OUTPUT: f

INPUT: Name the outcome recorded for CCCCCCCC(=O)O in the assay.
OUTPUT: f

INPUT: I'd appreciate the recorded outcome for O=[N+]([O-])c1ccc(O)cc1 from this test.
OUTPUT: f

----------
Read-out: Cytochrome P450 (CYP1A1), CYP1A1 (gene 1543)
Assay: LTEA_HepaRG_CYP1A1: Life Technologies and Expression Analysis (LTEA) Assay for Cytochrome P450 (CYP1A1) using HepaRG (AID 2283454)
Details: mRNA level, 48 h; actives raise or lower the signal
Procedure: LTEA_HepaRG is a cell based, multiplexed-readout assay that uses HepaRG, a human liver cell line, with measurements taken at 48 hours after chemical dosing on a 96-well plate.LTEA_HepaRG_CYP1A1 is one of 102 assay component(s) measured in the LTEA HepaRG cell culture assay. It is a marker of NR mediated metabolism.Data from the assay component LTEA_HepaRG_CYP1A1 was analyzed into 1 endpoint. […]
Active and inactive are the calls of the source. How the source made its calls: active means hit-call score of the fitted dose curve at least 0.9, where 1 is the maximum; inactive means score below 0.9.
Your reply should match one of these outcome classes. Yes for active, No for inactive

- CC(O)CO (stereo not drawn): No
- CCCCC(CC)COC(=O)CCCCC(=O)OCc1ccccc1 (stereo not drawn): Yes
- CCc1ccc(CCOc2ccc(CC3SC(=O)NC3=O)cc2)nc1 (stereo not drawn): Yes

INPUT: For this molecule, state the assay outcome: O=C(OCCOCCOC(=O)c1ccccc1)c1ccccc1
OUTPUT: Yes

INPUT: Tell me the recorded outcome of this test for C#C[C@]1(O)CC[C@H]2[C@@H]3CCC4=CC(=O)CC[C@@H]4[C@H]3CC[C@@]21C .
OUTPUT: No

INPUT: Just curious, what result did CCCCOCCO get here?
OUTPUT: Yes
